Quick note: these are AC50 numbers for system: D(1A) dopamine receptor (Homo sapiens, UniProt P21728); further: assay procedure not described here
Sequence (P21728 whole entry): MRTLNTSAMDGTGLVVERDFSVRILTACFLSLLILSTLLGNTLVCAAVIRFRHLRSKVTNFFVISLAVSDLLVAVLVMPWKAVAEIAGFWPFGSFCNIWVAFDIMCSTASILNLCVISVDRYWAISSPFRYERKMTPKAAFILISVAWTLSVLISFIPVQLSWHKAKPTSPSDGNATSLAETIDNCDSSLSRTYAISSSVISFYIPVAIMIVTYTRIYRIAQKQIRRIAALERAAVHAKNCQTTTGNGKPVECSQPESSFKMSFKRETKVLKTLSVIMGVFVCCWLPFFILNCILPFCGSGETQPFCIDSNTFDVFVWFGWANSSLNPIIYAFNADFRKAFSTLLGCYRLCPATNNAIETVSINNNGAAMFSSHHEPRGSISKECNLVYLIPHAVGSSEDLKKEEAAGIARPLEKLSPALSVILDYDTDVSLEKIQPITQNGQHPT

{"Compound": "Cc1oc(=O)oc1CN1CCN(c2cc3c(cc2F)c(=O)c(C(=O)O)c2n3C(C)S2)CC1 (stereo not drawn)", "Measured value": "> 30 µM"}

Reported AC50 for `Cc1cc(C)c(NC(=O)CN(CC(=O)O)CC(=O)O)c(C)c1Br` : what is it?
> 30 µM

Reported AC50 for `CC[C@H]1OC(=O)[C@H](C)[C@@H](O[C@H]2C[C@@](C)(OC)[C@@H](O)[C@H](C)O2)[C@H](C)[C@@H](O[C@@H]2O[C@H](C)C[C@H](N(C)C)[C@H]2O)[C@](C)(O)C[C@@H](C)CN(C)[C@H](C)[C@@H](O)[C@]1(C)O` : what is it?
> 30 µM

====

# Assayed target: Histamine H2 receptor (Homo sapiens); further: assay procedure not described here
# Sequence (P25021 whole entry): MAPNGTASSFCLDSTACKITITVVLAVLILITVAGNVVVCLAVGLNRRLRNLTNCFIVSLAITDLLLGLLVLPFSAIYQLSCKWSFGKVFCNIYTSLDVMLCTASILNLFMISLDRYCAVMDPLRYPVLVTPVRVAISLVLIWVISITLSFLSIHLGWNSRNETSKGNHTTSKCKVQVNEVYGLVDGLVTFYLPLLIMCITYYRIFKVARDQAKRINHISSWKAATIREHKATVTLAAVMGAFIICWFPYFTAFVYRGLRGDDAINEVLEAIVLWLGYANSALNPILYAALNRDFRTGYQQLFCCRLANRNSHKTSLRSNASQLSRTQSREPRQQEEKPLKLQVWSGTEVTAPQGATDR
# Assay type: functional, cell-based
Assay metric: AC50

Worked examples, 5 compounds total:
{"Compound": "CN1C(=O)OC(C)(C)C1=O", "AC50": "> 10 µM"}
{"Compound": "CCCSc1ccc2nc(NC(=O)OC)[nH]c2c1", "AC50": "> 10 µM"}
{"Compound": "COc1ccccc1OCC(O)CN1CCN(CC(=O)Nc2c(C)cccc2C)CC1 (stereo not drawn)", "AC50": "> 30 µM"}
{"Compound": "Cc1cc(C)c(NC(=O)CN(CC(=O)O)CC(=O)O)c(C)c1Br", "AC50": "> 30 µM"}
{"Compound": "CC[C@@H]1C(=O)OC[C@@H]1Cc1cncn1C", "AC50": "> 10 µM"}

Okay, now this compound:
Reported AC50 for `CCOC(=O)[C@H](CCc1ccccc1)N[C@@H](C)C(=O)N1C(=O)N(C)C[C@H]1C(=O)O` : what is it?
> 30 µM

====

# Assayed target: Vascular endothelial growth factor receptor 2 (Homo sapiens); further: assay procedure not described here
# Sequence (P35968 whole entry): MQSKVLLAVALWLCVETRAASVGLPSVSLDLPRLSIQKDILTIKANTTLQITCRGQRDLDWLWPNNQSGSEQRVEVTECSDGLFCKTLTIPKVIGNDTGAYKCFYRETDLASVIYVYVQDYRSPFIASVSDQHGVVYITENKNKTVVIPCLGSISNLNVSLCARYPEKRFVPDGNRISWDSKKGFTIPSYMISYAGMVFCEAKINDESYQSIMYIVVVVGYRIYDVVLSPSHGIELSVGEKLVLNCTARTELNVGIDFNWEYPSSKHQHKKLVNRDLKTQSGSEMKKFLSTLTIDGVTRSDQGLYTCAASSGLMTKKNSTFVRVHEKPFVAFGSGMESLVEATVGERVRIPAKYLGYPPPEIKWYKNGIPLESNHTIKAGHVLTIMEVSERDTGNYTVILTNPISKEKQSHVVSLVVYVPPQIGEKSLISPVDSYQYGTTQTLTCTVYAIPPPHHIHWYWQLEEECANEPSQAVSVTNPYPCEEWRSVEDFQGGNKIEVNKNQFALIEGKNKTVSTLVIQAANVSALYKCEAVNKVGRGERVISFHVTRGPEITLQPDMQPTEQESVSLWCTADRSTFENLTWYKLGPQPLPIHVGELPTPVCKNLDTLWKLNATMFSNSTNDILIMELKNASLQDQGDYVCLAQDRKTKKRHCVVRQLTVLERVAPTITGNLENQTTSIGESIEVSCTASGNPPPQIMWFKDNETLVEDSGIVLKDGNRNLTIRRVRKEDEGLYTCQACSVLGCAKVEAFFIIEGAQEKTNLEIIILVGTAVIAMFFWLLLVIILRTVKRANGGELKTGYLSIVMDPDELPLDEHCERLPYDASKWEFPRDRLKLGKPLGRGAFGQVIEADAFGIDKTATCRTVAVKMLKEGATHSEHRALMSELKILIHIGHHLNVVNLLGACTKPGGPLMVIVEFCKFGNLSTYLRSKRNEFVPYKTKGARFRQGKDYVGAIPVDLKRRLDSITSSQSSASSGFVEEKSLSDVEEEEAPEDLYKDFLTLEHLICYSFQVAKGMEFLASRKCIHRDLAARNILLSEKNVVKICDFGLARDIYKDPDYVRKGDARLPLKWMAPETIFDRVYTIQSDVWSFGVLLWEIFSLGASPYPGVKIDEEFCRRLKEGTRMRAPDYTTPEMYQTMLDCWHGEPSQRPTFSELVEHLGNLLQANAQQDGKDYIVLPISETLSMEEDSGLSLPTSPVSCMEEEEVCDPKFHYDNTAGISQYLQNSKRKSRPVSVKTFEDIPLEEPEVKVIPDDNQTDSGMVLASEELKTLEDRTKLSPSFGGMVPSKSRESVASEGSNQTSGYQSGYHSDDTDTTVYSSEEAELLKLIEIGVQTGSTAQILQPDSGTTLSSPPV
# Type: functional
# reported AC50; entries follow

Worked examples, 3 molecules total:
{"Molecule": "CCOc1ccccc1OCC1CNCCO1 (configuration not stated)", "Assay metric": "AC50", "Measured value": "> 30 µM"}
{"Molecule": "Cc1cn([C@H]2C=C[C@@H](CO)O2)c(=O)[nH]c1=O", "Assay metric": "AC50", "Measured value": "> 30 µM"}
{"Molecule": "O=C(OCC(O)CO)c1ccccc1Nc1ccnc2cc(Cl)ccc12 (configuration not stated)", "Assay metric": "AC50", "Measured value": "13 µM"}

Okay, now this molecule:
Reported AC50 for CNC1Cc2ccccc2N(C)c2ccccc21 (configuration not stated) : what is it?
> 30 µM

====

Quick note: these are AC50 numbers for system: Androgen receptor (Homo sapiens); further: assay procedure not described here
Sequence (P10275 whole entry): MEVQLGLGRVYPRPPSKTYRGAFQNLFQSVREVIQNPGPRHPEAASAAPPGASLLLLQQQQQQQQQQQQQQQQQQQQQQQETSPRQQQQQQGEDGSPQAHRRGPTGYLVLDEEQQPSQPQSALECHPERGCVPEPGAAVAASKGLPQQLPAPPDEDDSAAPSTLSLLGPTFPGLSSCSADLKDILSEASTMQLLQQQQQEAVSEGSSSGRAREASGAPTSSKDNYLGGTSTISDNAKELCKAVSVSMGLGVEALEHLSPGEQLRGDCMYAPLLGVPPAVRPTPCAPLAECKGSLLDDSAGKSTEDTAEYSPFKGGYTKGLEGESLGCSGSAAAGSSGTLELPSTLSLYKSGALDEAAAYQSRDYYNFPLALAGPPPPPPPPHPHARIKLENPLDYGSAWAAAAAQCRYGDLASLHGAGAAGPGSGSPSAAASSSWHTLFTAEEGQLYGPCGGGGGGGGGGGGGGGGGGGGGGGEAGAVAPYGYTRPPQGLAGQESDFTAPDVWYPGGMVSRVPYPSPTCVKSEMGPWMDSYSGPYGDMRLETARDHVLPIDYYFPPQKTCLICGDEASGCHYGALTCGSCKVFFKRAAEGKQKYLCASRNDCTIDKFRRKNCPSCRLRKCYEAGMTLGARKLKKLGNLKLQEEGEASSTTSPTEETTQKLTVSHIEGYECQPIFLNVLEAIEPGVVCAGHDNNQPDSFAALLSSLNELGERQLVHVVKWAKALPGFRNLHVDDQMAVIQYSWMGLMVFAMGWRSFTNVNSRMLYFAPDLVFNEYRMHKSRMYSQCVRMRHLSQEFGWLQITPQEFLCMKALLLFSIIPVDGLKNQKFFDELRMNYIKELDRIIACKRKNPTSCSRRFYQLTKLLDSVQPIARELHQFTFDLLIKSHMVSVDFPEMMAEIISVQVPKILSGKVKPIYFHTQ

Worked examples, 7 compounds total:
{"Compound": "CC1=C(/C=C/C(C)=C/C=C/C(C)=C/C=C/C=C(C)/C=C/C=C(C)/C=C/C2=C(C)CCCC2(C)C)C(C)(C)CCC1", "AC50": "> 30 µM"}
{"Compound": "COCc1c(C(C)C)nc(C(C)C)c(/C=C/[C@@H](O)C[C@@H](O)CC(=O)O)c1-c1ccc(F)cc1", "AC50": "> 30 µM"}
{"Compound": "CCC(=O)NCC[C@@H]1CCc2ccc3c(c21)CCO3", "AC50": "> 30 µM"}
{"Compound": "CC(C)Nc1ncccn1", "AC50": "> 30 µM"}
{"Compound": "CC(C)(C)NCC(O)COc1cccc2c1SCCC2 (stereo not drawn)", "AC50": "> 30 µM"}
{"Compound": "CCOc1ccc(Cc2cc([C@@H]3O[C@H](CO)[C@@H](O)[C@H](O)[C@H]3O)ccc2Cl)cc1", "AC50": "> 30 µM"}
{"Compound": "CCC1=C(C)CN(C(=O)NCCc2ccc(S(=O)(=O)NC(=O)N[C@H]3CC[C@H](C)CC3)cc2)C1=O [GLIMEPIRIDE]", "AC50": "> 30 µM"}

Okay, now this compound:
Reported AC50 for C=CCc1ccccc1OCC(O)CNC(C)C (stereo not drawn) : what is it?
> 0.3 µM
